# Test system: Escherichia coli TOP10;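 note: peptides expressed intracellularly from a pBAD plasmid library in pooled LB shake-flask culture, induced with 0.3% L-arabinose, DNA abundance read by NGS, three biological replicates, DESeq2 with apeglm shrinkage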
# assay remarks: shrunken log2 fold change of peptide-encoding DNA abundance (4.5 h post-induction vs induction); higher = less antimicrobial activity (less host growth inhibition)
# measurement conditions: time post-induction: 4.5 h; library: site-saturation at positions 5, 18, 19, 20
value kind: shrunken log2 fold change

For RRIRVRPPRLPRPRPRPMPPPRP , what is its reported shrunken log2 fold change?
0.44

For RRIRQRPPRLPRPRPRPAGDPRP , what is its reported shrunken log2 fold change?
0.127

For RRIRHRPPRLPRPRPRPGEEPRP , what is its reported shrunken log2 fold change?
0.03

For RRIRIRPPRLPRPRPRPMMFPRP , what is its reported shrunken log2 fold change?
-0.0225

For RRIRGRPPRLPRPRPRPGECPRP , what is its reported shrunken log2 fold change?
0.959

For RRIRTRPPRLPRPRPRPFTSPRP , what is its reported shrunken log2 fold change?
-0.0603

For RRIRDRPPRLPRPRPRPFYWPRP , what is its reported shrunken log2 fold change?
-0.0675

For RRIRIRPPRLPRPRPRPGATPRP , what is its reported shrunken log2 fold change?
-0.0576

For RRIRLRPPRLPRPRPRPIYDPRP , what is its reported shrunken log2 fold change?
-1

For RRIRVRPPRLPRPRPRPDWCPRP , what is its reported shrunken log2 fold change?
0.0302

For RRIRIRPPRLPRPRPRPLCGPRP , what is its reported shrunken log2 fold change?
-0.319

For RRIRFRPPRLPRPRPRPMPHPRP , what is its reported shrunken log2 fold change?
-0.0704

For RRIRIRPPRLPRPRPRPHLVPRP , what is its reported shrunken log2 fold change?
-0.573

For RRIRDRPPRLPRPRPRPDILPRP , what is its reported shrunken log2 fold change?
0.111

For RRIRERPPRLPRPRPRPISEPRP , what is its reported shrunken log2 fold change?
-0.0562

For RRIRWRPPRLPRPRPRPWYIPRP , what is its reported shrunken log2 fold change?
-0.172

For RRIRNRPPRLPRPRPRPPERPRP , what is its reported shrunken log2 fold change?
0.537

For RRIRLRPPRLPRPRPRPHTQPRP , what is its reported shrunken log2 fold change?
-0.31

For RRIRHRPPRLPRPRPRPQVAPRP , what is its reported shrunken log2 fold change?
0.0753

For RRIRTRPPRLPRPRPRPLIIPRP , what is its reported shrunken log2 fold change?
-0.784

For RRIRWRPPRLPRPRPRPFSMPRP , what is its reported shrunken log2 fold change?
-0.0921

For RRIRHRPPRLPRPRPRPWNHPRP , what is its reported shrunken log2 fold change?
-0.0561

For RRIRVRPPRLPRPRPRPQSWPRP , what is its reported shrunken log2 fold change?
0.256

For RRIRWRPPRLPRPRPRPFKPPRP , what is its reported shrunken log2 fold change?
-0.231

For RRIRQRPPRLPRPRPRPWLMPRP , what is its reported shrunken log2 fold change?
-0.102

For RRIRVRPPRLPRPRPRPRKSPRP , what is its reported shrunken log2 fold change?
0.337

For RRIRVRPPRLPRPRPRPYRIPRP , what is its reported shrunken log2 fold change?
0.0112

For RRIRMRPPRLPRPRPRPYFTPRP , what is its reported shrunken log2 fold change?
-0.362

For RRIRTRPPRLPRPRPRPQCTPRP , what is its reported shrunken log2 fold change?
-0.175

For RRIRFRPPRLPRPRPRPRHIPRP , what is its reported shrunken log2 fold change?
-0.439

For RRIRRRPPRLPRPRPRPMEHPRP , what is its reported shrunken log2 fold change?
0.131

For RRIRKRPPRLPRPRPRPHWTPRP , what is its reported shrunken log2 fold change?
-0.0277
